target: NAMPT (human, recombinant, C-terminally His-tagged) (Homo sapiens); assay: Time-Resolved Fluorescence Resonance Energy Transfer (TR-FRET) Binding Assay of NAMPT; details: without substrates; 6.8 nM NAMPT, 200 nM probe, 3 hours equilibration
Sequence (P43490 whole entry): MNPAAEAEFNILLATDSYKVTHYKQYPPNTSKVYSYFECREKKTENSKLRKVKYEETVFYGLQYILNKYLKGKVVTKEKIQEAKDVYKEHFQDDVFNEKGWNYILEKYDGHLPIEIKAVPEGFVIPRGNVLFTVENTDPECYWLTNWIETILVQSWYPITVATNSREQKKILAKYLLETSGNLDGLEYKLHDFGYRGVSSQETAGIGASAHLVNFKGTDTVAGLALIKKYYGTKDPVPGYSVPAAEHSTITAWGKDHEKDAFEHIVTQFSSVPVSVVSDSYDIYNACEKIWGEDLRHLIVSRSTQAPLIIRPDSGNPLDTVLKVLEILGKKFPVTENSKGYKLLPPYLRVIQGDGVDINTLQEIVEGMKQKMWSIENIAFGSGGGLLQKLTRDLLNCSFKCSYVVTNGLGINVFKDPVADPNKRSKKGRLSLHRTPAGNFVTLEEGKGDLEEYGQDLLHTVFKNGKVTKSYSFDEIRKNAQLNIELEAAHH
PARAMETER: IC50 (µM)

CC(=O)Nc1ccc(NC(=O)Nc2ccc3nccn3c2)cc1 [Example 27]
0.756
O=C(NCc1ccn2ccnc2c1)c1ccc(C2(O)CCOCC2)s1 [Example 399]
9.5
O=C(NCc1ccn2ccnc2c1)c1ccc(-c2cnn(C3CCOCC3)c2)s1 [Example 410]
0.0207
Cn1cc(CCC(=O)N(C[C@H]2CCCO2)c2ncc(C(=O)NCc3ccn4ccnc4c3)s2)cn1 [Example 198]
0.0325
CC(C)CC(=O)N1CCC(c2ccc(C(=O)NCc3ccn4ccnc4c3)s2)C1 (centres unmarked) [Example 467]
0.0911

a = O=C(NCc1ccn2ccnc2c1)c1ccc(-c2cnn(CC3CCOCC3)c2)s1 [Example 265]
b = Cc1nn(C)cc1CC(=O)N(CC1CCCO1)c1ncc(C(=O)NCc2ccc3nccn3c2)s1 (centres unmarked) [Example 184]
c = O=C(NCc1ccn2ccnc2c1)c1ccc(C2CCN(C(=O)c3ccccc3)C2)cc1 (centres unmarked) [Example 370]
d = O=C(NCc1ccn2ccnc2c1)c1ccc(C2CCN(C(=O)C3CCOCC3)CC2)cc1 [Example 232]
Q. Sort ascending by IC50. # answer = labels listed in requested order
A. a, c, d, b
